Every entry's value here was drawn from PubChem BioAssay (NCI).

- Tested on: HOP-62 NSCLC
- Assay overview: NCI-60 one-dose screen, 48 h
- Measurement conditions: 10 µM unless noted
About 83,000 compounds went through this panel and 20% of them were active in at least one assay; those are over-represented in the sample as a whole. Active and inactive are the calls of the source. The calls were made as follows: active = growth percent below 10; inactive = the rest.
Classes used: class 1 (active), class 0 (inactive)

Compound: Cn1cc(-c2cc(N)n3nc(-c4cn(C)c5ccccc45)cc3n2)c2ccccc21
Label value: class 0
--
Compound: O=C(NCCn1ccnc1)c1ccc(-c2nc3ccc4[nH]ncc4c3c3c2CCCC3)cc1
Label value: class 0
--
Compound: CCNC(=O)N1CCc2cc(OC)c(OCCc3ccc(OC)cc3)cc2C1c1ccc(Cl)cc1C (stereo not given)
Label value: class 0
--
Compound: NC/C(=C/F)COc1ccc2nc(NCc3cccnc3)oc2c1
Label value: class 0
--
Compound: C#CCOC(=O)[C@@H]1CCCN1CC#C
Label value: class 0
--
Compound: COc1ccc(-c2nc3ccc(-c4nnc(SCC(=O)Nc5ccc(C(=O)/C=C/c6ccc(Cl)cc6)cc5)o4)cc3[nH]2)cc1
Label value: class 0
--
Compound: CCO/C=N/C1=C(C#N)C(c2ccc(OC)cc2)c2sc3c(CC)cccc3c2O1 (stereo not given)
Label value: class 0
--
Compound: COc1c(N2CC3CCCNC3C2)c(F)cc2c(=O)c(C(=O)N/N=C/c3ccc(F)cc3)cn(C3CC3)c12 (stereo not given)
Label value: class 0
--
Compound: CCCC(=O)NC(c1cccnc1)c1cc(C(C)(C)C)c2cccnc2c1O (stereo not given)
Label value: class 0
--
Compound: NC(N)=Nc1ccc(Nc2cccc(Oc3ccc(Cl)c(C(F)(F)F)c3)c2)cn1
Label value: class 0
--
Compound: CN(C)C(=O)c1cc(-c2ccc3ncnc(NCc4ccccc4)c3c2)cnc1N
Label value: class 0
--
Compound: CNC(=O)c1c(NC(=O)c2cccc(C(F)(F)F)c2F)sc2c1CCC(=O)C2
Label value: class 0
--
Compound: Nc1ncc(-c2ccc3ncnc(Nc4cccc(Cl)c4F)c3c2)cn1
Label value: class 0
--
Compound: CCOC(=O)c1c(Nc2ccccc2)nn2c(-c3ccc(OC)cc3)ccnc12
Label value: class 0
--
Compound: CC1(C)[C@@H](O)CC[C@]2(C)[C@H]3CC[C@@H]4[C@H]5[C@H](C(=O)/C=C\c6ccncc6)CC[C@]5(O)CC[C@@]4(C)[C@]3(C)CC[C@@H]12
Label value: class 0
--
Compound: O=C1C(c2ccccc2)=C(N2CCc3ccccc32)OC1(Cl)Cl
Label value: class 0
--
Compound: COc1ccccc1C(=O)Nc1cccc2c1C(=O)C(=O)C=C2
Label value: class 0
--
Compound: N/C(=N\C(N)=N\c1nc2ccccc2s1)c1ccc2ccccc2c1
Label value: class 1
--
Compound: CCCn1cnc2c(c1=N)C(c1ccc(Cl)cc1)c1sc3c(C)cccc3c1O2 (stereo not given)
Label value: class 0
--
Compound: COc1cc2c(cc1OC)C(Sc1ccc(C)cc1)c1c(nc(N)c(C#N)c1N)O2 (stereo not given)
Label value: class 1

---

- Tested on: LOX IMVI melanoma
- Assay overview: NCI-60 one-dose screen, 48 h (100 = growth as untreated, 0 = no growth, -100 = all killed)
- Measurement conditions: 10 µM unless noted
Compounds without any hit were thinned out: in the full panel of roughly 83,000, 20% have a hit.
Measured endpoint: growth (%)

Given smiles: O=C1/C(=C/C=C/c2ccco2)SC(=S)N1C1CCCCC1
Measured endpoint: growth
Measured number: 103
--
Given smiles: O=C1/C(=C/C=C/c2ccco2)SC(=S)N1c1ccccc1
Measured endpoint: growth
Measured number: 26
--
Given smiles: COc1cc(-c2ccc3ncnc(NCc4ccccc4)c3c2)cnc1OC
Measured endpoint: growth
Measured number: 41.2
--
Given smiles: O=S(=O)(NCCNc1nccc(-n2cnc3ccccc32)n1)c1ccc(Br)cc1
Measured endpoint: growth
Measured number: 99.1
--
Given smiles: CCN1CCN(Cc2cn(-c3ccc(S(N)(=O)=O)cc3)nn2)CC1
Measured endpoint: growth
Measured number: 102
--
Given smiles: COc1ccc(/C=C(\C#N)C(=O)N2c3ccccc3Sc3ccc(SC)cc32)cc1F
Measured endpoint: growth
Measured number: 88.8

---

The entries below come with measured growth values attached.
- System: SNB-75 CNS
- Assay overview: NCI-60 one-dose screen, 48 h (100 = growth as untreated, 0 = no growth, -100 = all killed)
- Measurement conditions: 10 µM unless noted
About 83,000 compounds went through this panel and 20% of them were active in at least one assay; those are over-represented in the sample as a whole.

Molecule: COc1ccccc1NC1=C(Cl)C(=O)c2nc(C)ccc2C1=O
growth, %: 105
//
Molecule: CCc1cccc2c3c(sc12)C(c1ccc(Cl)cc1)C(C#N)=C(/N=C/c1ccc(Cl)cc1)O3 (stereo not given)
growth, %: -13.9
//
Molecule: CC[C@@H](CO)Nc1ccc2ncc(C#Cc3cncc(C(=O)Nc4ccc(CN5CCN(C)CC5)c(C(F)(F)F)c4)c3)n2n1
growth, %: -83.5
//
Molecule: CN1CCC(n2cc(Nc3ncc4c(=O)n(-c5c(Cl)cccc5Cl)cc(Br)c4n3)cn2)CC1
growth, %: 17.1
//
Molecule: C#Cc1nc(C(C)=O)cs1
growth, %: 85.5
//
Molecule: COC(=O)C1(C)CCC[C@]2(C)[C@H]3C[C@H]4C(C(C)C)=C[C@]3(CC[C@@H]12)[C@H]1[C@@H]4[C@@H](OC(=O)c2ccco2)CC[C@@H]1OC(=O)c1ccco1 (stereo not given in full)
growth, %: 97.8
//
Molecule: COc1cc(-c2nc(-c3ccccc3)[nH]c2-c2ccnc(NCCCNS(=O)(=O)c3cccc(F)c3)n2)ccc1Cl
growth, %: 77.4
//
Molecule: Cc1ccc(C2=Nn3c(nnc3-c3ccccc3)SC2)cc1
growth, %: -4.24
//
Molecule: C=C1CC[C@@H]2[C@]3(C)COC(c4ccccc4)O[C@@H]3CC[C@@]2(C)[C@@H]1C/C=C1/C(=O)OC[C@H]1O (stereo not given in full)
growth, %: 100
//
Molecule: CCNC(=O)N1CCc2cc(OC)c(OCCc3ccc(OC)cc3)cc2C1c1ccc(Cl)cc1C (stereo not given)
growth, %: 37.9

---

- Test system: NCI-H522 lung
- Assay overview: NCI-60 one-dose screen, 48 h (100 = growth as untreated, 0 = no growth, -100 = all killed)
- Measurement conditions: 10 µM unless noted
- Method: Growth inhibition of the NCI-H522 human Non-Small Cell Lung tumor cell line is measured as a screen for anti-cancer activity. Cells are grown in 96 well plates and exposed to the test compound for 48 hours. Compounds are tested at a single concentration, which is 10^-5 M for most compounds. The reported endpoint is percent growth (GI% or GIPRCNT), where numbers from 0 - 100% represent growth inhibition, and numbers from -100% - 0 represent cell death. […]
This is part of a sample that, as a whole, favours compounds with a hit. Of some 83,000 tested, about 20% had one in any assay.
Classes based on growth: low = under 20%, moderate = from 20% up to 80%, high = 80% and over

Compound: C=C(C=O)[C@@H]1CC[C@]2(C)[C@H](CC=C3[C@H]4[C@@H](C)[C@H](C)CC[C@]4(C(=O)OC)CC[C@]32C)[C@@]1(C)CCC#N
Label value: low
--
Compound: CCc1nn2c(C)cc(C)nc2c1Cc1ccc(/C=C/CN2CCN(CCOCCOCCN3CCN(C/C=C/c4ccc(Cc5c(CC)nn6c(C)cc(C)nc56)cc4)CC3)CC2)cc1
Label value: low
--
Compound: O=S(=O)(NCCCNc1nccc(-c2[nH]c(-c3ccccc3)nc2-c2ccc(Cl)c(O)c2)n1)c1cccc(F)c1
Label value: moderate
--
Compound: O=S(=O)(NCCCNc1nccc(-c2[nH]c(-c3ccccc3)nc2-c2ccc(Cl)c(O)c2)n1)c1cccc2ccccc12
Label value: moderate
--
Compound: NS(=O)(=O)c1ccc(Nc2nc(Nc3ccccc3)nc3nnc(SCC(=O)NC4CCCCC4)n23)cc1
Label value: high
--
Compound: C=C1CC[C@@H]2[C@](C)(CO)[C@H](O)CC[C@@]2(C)[C@@H]1C/C(O)=C1\CCOC1=O
Label value: high
--
Compound: COc1c(N2CC3CCCNC3C2)c(F)cc2c(=O)c(C(=O)N/N=C/c3ccc(Br)cc3)cn(C3CC3)c12 (stereo unspecified)
Label value: moderate
--
Compound: CCC(CC)N1C(=O)/C(=c2\sc3n(c2=O)NC2C(N=3)N(CC)C(=O)N2CC)c2ccccc21 (stereo unspecified)
Label value: moderate
--
Compound: N#Cc1c(NC(=O)c2cccc(C(F)(F)F)c2F)sc2c1CCC(=O)C2
Label value: low
--
Compound: Nc1ccccc1NC(=O)c1ccc(NC(=O)C/C=C/c2cccnc2)cn1
Label value: low
--
Compound: COc1ccccc1-n1cc(C#N)c(N)c1C(=O)c1ccc(Cl)cc1
Label value: moderate
--
Compound: O=[N+]([O-])c1cc(/C=N/Nc2nc(N/N=C/c3ccc(Cl)c([N+](=O)[O-])c3)nc(N3CCCCC3)n2)ccc1Cl
Label value: moderate
--
Compound: O=C1CC(=O)N2CSCN(C(c3ccccc3)c3nc4ncncc4[nH]3)C2=N1 (stereo unspecified)
Label value: high
--
Compound: Cc1cc(-c2ccc(Cl)cc2)n(Cc2nnc(SCC(=O)Nc3ccc(S(N)(=O)=O)cc3)n2C2CCCCC2)n1
Label value: high
--
Compound: CN1CCN(c2ccc(/C=N/Nc3nc4ccccc4c(=O)n3-c3ccccc3)cc2)CC1
Label value: high
--
Compound: Cn1ccnc1C(=O)/C=C/c1ccc(CNC(=O)c2ccc(S(F)(F)(F)(F)F)cc2)cc1
Label value: moderate
--
Compound: O=S(=O)(NC1c2ccccc2C[C@H]1O)c1ccc(Cl)cc1Cl (stereo partly specified)
Label value: high
--
Compound: Cn1ccnc1C(=O)/C=C/c1ccc(CNC(=O)c2ccc(F)cc2)cc1
Label value: moderate
--
Compound: NC(N)=Nc1ccc(Oc2cccc(Nc3ccc(Cl)c(C(F)(F)F)c3)c2)cn1
Label value: low
--
Compound: Cc1ccc(NC(=S)NNC(=S)Nc2ccc(C)cc2)cc1
Label value: high
--
Compound: O=C(Nc1nc2ccc([N+](=O)[O-])cc2s1)Nc1ccccc1Cl
Label value: low
--
Compound: COc1cc(-c2nc3sccn3c2-c2ccnc(S(C)(=O)=O)n2)ccc1F
Label value: high
--
Compound: O=C(NNc1nc2cc(F)ccc2n2c(CN3CCCC3)ccc12)c1cnccn1
Label value: low
--
Compound: Nc1nc(-c2cccc([N+](=O)[O-])c2)c(N=Nc2ccccc2)s1
Label value: moderate
--
Compound: Cc1ccc(-n2cc(/C=N/NC(=O)c3ccncc3)c(-c3ccc(S(C)(=O)=O)cc3)n2)cc1
Label value: moderate
--
Compound: Nc1nc(-c2cccc([N+](=O)[O-])c2)c(N=Nc2ccc(Br)cc2)s1
Label value: low
--
Compound: COc1ccc(COc2ccc(/C=C3\C(=O)Nc4ccccc43)cc2OC)cc1
Label value: high
--
Compound: Cn1ccnc1C(=O)/C=C/c1ccc(CNC(=O)c2ccc(Cl)cc2)cc1
Label value: low
--
Compound: CCO/C=N/C1=C(C#N)C(c2ccc(Cl)cc2)c2sc3c(CC)cccc3c2O1 (stereo unspecified)
Label value: low
--
Compound: C#C[C@]1(O)CC[C@H]2[C@@H]3CC=C4c5sc(-c6cccc(O)c6)nc5CC[C@]4(C)[C@H]3CC[C@@]21C
Label value: low
--
Compound: Cc1ccc(-n2cc(/C=C/C(=O)c3ccc(O)cc3)c(-c3ccc(S(C)(=O)=O)cc3)n2)cc1
Label value: moderate
--
Compound: COc1c(N2CC3CCCNC3C2)c(F)cc2c(=O)c(C(=O)N/N=C/c3c[nH]c4ccccc34)cn(C3CC3)c12 (stereo unspecified)
Label value: high
--
Compound: Clc1cccc(/C=N/Nc2nc(N/N=C/c3cccc(Cl)c3Cl)nc(N3CCCCC3)n2)c1Cl
Label value: moderate
